EXPERIMENT: Cmax in plasma of Wistar rat with LPS-induced severe inflammatory response at 6 mg/kg, iv administered as single dose after 6 hrs by microdialysis technique
Type: ADME, organism-based
Design: dose 6 mg/kg, route intravenous
MEASURED_PROPERTY: Cmax
Output should be the measured figure followed by the unit it is expressed in.

Memo: C[C@@H](c1ncncc1F)[C@](O)(Cn1cncn1)c1ccc(F)cc1F [VORICONAZOLE] , reported Cmax: 6.3 µg/mL

###

EXPERIMENT: fTmax in skeletal muscle of healthy Wistar rat at 6 mg/kg, iv administered as single dose after 6 hrs by microdialysis technique
Type: ADME, organism-based, Muscle tissue
Parameters: dose 6 mg/kg, route intravenous
DETAILS: read-out: fTmax (converted)
MEASURED_PROPERTY: Tmax (h)
Hi! Could you send only the number? It should be in h, unit omitted.

Memo: `C[C@@H](c1ncncc1F)[C@](O)(Cn1cncn1)c1ccc(F)cc1F` , reported Tmax: 3.25

###

EXPERIMENT: AUC (0 to 6 hrs) in lung of Wistar rat with LPS-induced severe inflammatory response at 6 mg/kg, iv administered as single dose after 6 hrs by microdialysis technique
Format: ADME, organism-based
Set-up: time < 6 hr, dose 6 mg/kg, route intravenous
MEASURED_PROPERTY: AUC(0-t) at 6 h (µg·h/mL)
Hi! Could you send only the number? It should be in µg·h/mL, unit omitted.

Memo: `C[C@@H](c1ncncc1F)[C@](O)(Cn1cncn1)c1ccc(F)cc1F` , reported AUC(0-t) at 6 h: 8.17

###

EXPERIMENT: Tmax in plasma of healthy Wistar rat at 6 mg/kg, iv administered as single dose after 6 hrs by microdialysis technique
Assay type: ADME, organism-based
Parameters: dose 6 mg/kg, route intravenous
MEASURED_PROPERTY: Tmax

Memo: `C[C@@H](c1ncncc1F)[C@](O)(Cn1cncn1)c1ccc(F)cc1F` , reported Tmax: 49 min

###

EXPERIMENT: Tmax in plasma of Wistar rat with LPS-induced severe inflammatory response at 6 mg/kg, iv administered as single dose after 6 hrs by microdialysis technique
Type: ADME, organism-based
Parameters: dose 6 mg/kg, route intravenous
MEASURED_PROPERTY: Tmax (min)
Hi! Could you send only the number? It should be in min, unit omitted.

Memo: `C[C@@H](c1ncncc1F)[C@](O)(Cn1cncn1)c1ccc(F)cc1F` , reported Tmax: 15
